tested.target: Glutamate NMDA receptor
protocol.text: Ability to displace [3H]L-689560 from NMDA receptor glycine site in rat brain membranes
property.label: IC50 (µM)

INSERT INTO results (compound_structure, property_label, value_measured) VALUES
  ('N[C@H](Cc1cc(I)c(O)c(I)c1)C(=O)O', 'IC50', 100);

[a] N[C@H](Cc1cc(I)c(Oc2ccc(O)cc2)c(I)c1)C(=O)O
[b] COC(=O)[C@H](N)Cc1cc(I)c(OCCc2ccc(O)cc2)c(I)c1
[c] N[C@H](Cc1cc(I)c(Oc2cc(I)c(O)c(I)c2)c(I)c1)C(=O)O
[d] N[C@H](Cc1ccc(OCCc2ccccc2)c(I)c1)C(=O)O
[e] N[C@H](Cc1cc(I)c(OCCc2ccccc2)c(I)c1)C(=O)O
Prompt line: Sort by IC50, descending. # output: labels, in the requested order
Response line: b, d, a, e, c
(b: 100 µM, d: 7.3 µM, a: 4.1 µM, e: 0.51 µM, c: 0.33 µM)
